Cited source: PubChem BioAssay

molecular target: Pantothenate synthetase (Mycobacterium tuberculosis (strain ATCC 25618 / H37Rv)); experiment: Coupled enzyme confirmation of inhibitors against recombinant Mtb PanC (AID 375); conditions: coupled enzyme assay; at 10 µM, stronger effect = higher value;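 also: 0% = full reaction with vehicle and 100% = no enzyme background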

{"columns": ["mol", "testSystem", "inhibition, %"],
 "data": [
  ["COC(=O)CSc1nnc(-c2cccs2)n1-c1ccc(Cl)cc1", "Pantothenate synthetase (Mycobacterium tuberculosis (strain ATCC 25618 / H37Rv))", 4],
  ["CC(C)n1nc(C(=O)Nc2nc3ccc(S(C)(=O)=O)cc3s2)c2ccccc2c1=O", "Pantothenate synthetase (Mycobacterium tuberculosis (strain ATCC 25618 / H37Rv))", 0],
  ["CCOC(=O)c1ccc(NC(=O)N2CCN(CCc3ccccc3)CC2)cc1", "Pantothenate synthetase (Mycobacterium tuberculosis (strain ATCC 25618 / H37Rv))", 0],
  ["O=C(NCc1ccccc1)C1CCN(S(=O)(=O)c2cccc3cccnc23)CC1", "Pantothenate synthetase (Mycobacterium tuberculosis (strain ATCC 25618 / H37Rv))", 0],
  ["COc1cc(Br)cc(CN2CCN(C/C=C/c3ccccc3)CC2)c1O", "Pantothenate synthetase (Mycobacterium tuberculosis (strain ATCC 25618 / H37Rv))", 0],
  ["CCN1CCc2c(C#N)c(N3CCCCC3)nc(NCc3ccccc3)c2C1", "Pantothenate synthetase (Mycobacterium tuberculosis (strain ATCC 25618 / H37Rv))", 0]
]}

* * *

target: Pantothenate synthetase (Mycobacterium tuberculosis (strain ATCC 25618 / H37Rv)) (UniProt P9WIL5); assay: Coupled enzyme confirmation of inhibitors against recombinant Mtb PanC (AID 375); settings: coupled enzyme assay; at 10 µM, stronger effect = higher value;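 also: 0% = full reaction with vehicle and 100% = no enzyme background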
Sequence (P9WIL5 whole entry, looked up): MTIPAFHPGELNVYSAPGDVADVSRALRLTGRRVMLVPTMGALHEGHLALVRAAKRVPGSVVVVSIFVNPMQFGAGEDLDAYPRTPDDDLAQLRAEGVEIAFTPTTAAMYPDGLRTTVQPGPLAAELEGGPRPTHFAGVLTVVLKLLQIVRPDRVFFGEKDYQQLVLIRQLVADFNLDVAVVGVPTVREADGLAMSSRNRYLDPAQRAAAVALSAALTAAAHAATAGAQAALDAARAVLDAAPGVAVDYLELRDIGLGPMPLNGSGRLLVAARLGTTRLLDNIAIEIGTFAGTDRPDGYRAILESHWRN

{"columns": ["compound", "inhibition [%]"],
 "data": [
  ["O=C(Cn1cnc2ccccc2c1=O)NCCC(=O)N1CCN(c2ccccc2)CC1", 0],
  ["COc1cccc(C(=O)Nc2ccc(N(C)C)cc2)c1OC", 8],
  ["O=C(NC1CCCC1)c1cc(-c2cccs2)on1", 6],
  ["C(=C\\c1ccccc1)/CN1CCN(C(c2ccccc2)c2ccccc2)CC1", 0],
  ["Cn1c(=O)n(CCC(=O)O)c2ccccc21", 7],
  ["CCOC(=O)c1cc2c(=O)n3cccc(C)c3nc2n(CC2CCCO2)c1=NC(C)=O (stereo unspecified)", 7]
]}

* * *

biological target: Pantothenate synthetase (Mycobacterium tuberculosis (strain ATCC 25618 / H37Rv)); assay: Coupled enzyme confirmation of inhibitors against recombinant Mtb PanC (AID 375); conditions: coupled enzyme assay; at 10 µM, stronger effect = higher value;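 also: 0% = full reaction with vehicle and 100% = no enzyme background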
Activity calls are given as the source filed them. No rule for the calls is given here.
attributeMeasured: inhibition

{"columns": ["compound", "result"],
 "data": [
  ["O=C(NCc1ccco1)c1noc2c1CCCCC2", "12% (inactive)"],
  ["O=C(NCc1ccc2c(c1)OCO2)c1cccc2c1C(=O)N(C1CCCCC1)C2", "5% (inactive)"],
  ["O=C(NC1CC2CCC1C2)C1COc2ccccc2O1 (stereo unspecified)", "0% (inactive)"],
  ["COc1ccc(C)cc1NC(=O)c1nnn(Cc2cccc(F)c2)c1N", "13% (inactive)"],
  ["Cc1ccc(N2CCN(CCc3nc4cc(NS(C)(=O)=O)ccc4n3C)CC2)cc1", "0% (inactive)"],
  ["CCN1C(=O)CC(C(=O)Nc2ccc(F)cc2)SC1=Nc1ccc2c(c1)OCO2 (stereo unspecified)", "6% (inactive)"],
  ["CC(C)n1c(CN2CCN(C)CC2)nc2c1c(=O)n(C)c(=O)n2C", "0% (inactive)"],
  ["CCCn1c(=NC(C)=O)c(C#N)cc2c(=O)n3cccc(C)c3nc21", "0% (inactive)"],
  ["O=C(CSc1nnnn1-c1ccccc1)Nc1nsc(-c2ccc(Cl)cc2)n1", "0% (inactive)"],
  ["CC(C)CCNC(=O)C(C)N(Cc1ccc(F)cc1)C(=O)c1ccc(CN2CCCCC2)o1 (stereo unspecified)", "1% (inactive)"],
  ["CC(C)=CCCC(C)NC(=O)NC1CCCCC1 (stereo unspecified)", "0% (inactive)"],
  ["CCOC(=O)N1CCN(c2c(N3CCc4ccccc4C3)c(=O)c2=O)CC1", "0% (inactive)"],
  ["COc1cc(C(=O)N2CCCC(c3nc(-c4cccs4)no3)C2)cc(OC)c1OC (stereo unspecified)", "0% (inactive)"],
  ["c1ccc(CC2CCN(c3nc4ccccc4n4nnnc34)CC2)cc1", "11% (inactive)"],
  ["CCCC(=O)Nc1cccc(NC(=O)CN2CCN(c3ccccc3OC)CC2)c1", "0% (inactive)"],
  ["N#C/C(C(=O)N1CCOCC1)=C1/SC=C(c2ccccc2)N1c1ccccc1", "7% (inactive)"],
  ["O=C(CSc1ncnc2c1oc1ccccc12)NCc1ccco1", "6% (inactive)"],
  ["Cc1nc2c(o1)CCc1ccccc1C2O (stereo unspecified)", "0% (inactive)"],
  ["Cc1ccc(C)c(SCC(=O)Nc2nnc(-c3ccccc3)o2)c1", "10% (inactive)"],
  ["CNC(=O)c1c(O)c2cccc3c2n(c1=O)CC3", "1% (inactive)"],
  ["CC(C)Oc1ccc(N2CC(C(=O)Nc3ccccc3F)CC2=O)cc1 (stereo unspecified)", "0% (inactive)"],
  ["CCn1c(C)nc2cc(C(=O)OC(C(F)(F)C(F)F)C(F)(F)C(F)F)ccc21", "0% (inactive)"],
  ["COc1ccc(OC)c(NC(=O)CS(=O)(=O)Cc2nc(-c3ccccc3C)oc2C)c1", "0% (inactive)"],
  ["CCOC(=O)CNC(=O)Nc1ccccc1C(=O)OC", "6% (inactive)"],
  ["O=C(CN1CCN(Cc2cccc(Cl)c2)C1=O)N1CCC2(CC1)OCCO2", "2% (inactive)"],
  ["O=C(O)C1CC=CCC1C(=O)Nc1cc(Cl)ccc1Cl (stereo unspecified)", "1% (inactive)"],
  ["CC(C)(C)C(=O)CCN1C(=O)C2(OCCO2)c2ccccc21", "0% (inactive)"],
  ["Cc1ccc(S(=O)(=O)N2CCCC2C(=O)OCc2nc3ccccc3s2)cc1 (stereo unspecified)", "0% (inactive)"],
  ["Cc1cc(C)c2c(n1)nn1c(N3CCOCC3)cc(C)nc21", "0% (inactive)"],
  ["CCOC(=O)N1CCC(NC(=O)Cn2cc3c(n2)CCC(C)C3)CC1 (stereo unspecified)", "0% (inactive)"],
  ["Cc1nnc(SCC(=O)NCCN2C(=O)CSC2=O)s1", "7% (inactive)"],
  ["COc1ccc(C)cc1NC(=O)C1CCN(S(=O)(=O)c2cccc3cccnc23)CC1", "19% (inactive)"],
  ["CCSc1nnc(-c2cccs2)o1", "0% (inactive)"],
  ["CCOc1cc(N2CCOCC2)c(OCC)cc1NC(=O)COC(=O)CCc1c[nH]c2ccccc12", "0% (inactive)"],
  ["CC1=C(n2nnc3ccccc32)C(c2ccccc2)C(C#N)=C(N)O1 (stereo unspecified)", "5% (inactive)"],
  ["CC(C)Cc1nnc(NS(=O)(=O)c2ccc(Cl)cc2)s1", "0% (inactive)"],
  ["CCCCNS(=O)(=O)c1ccc(OC)c2ncccc12", "3% (inactive)"],
  ["O=C(CN1CCC(c2nc3ccccc3s2)CC1)NCc1cccs1", "3% (inactive)"],
  ["O=C(COC(=O)CCc1c[nH]c2ccccc12)NC1CCS(=O)(=O)C1 (stereo unspecified)", "3% (inactive)"],
  ["CCCCC(=O)NCCc1cc2c(C)ccc(C)c2[nH]c1=O", "0% (inactive)"],
  ["CCOC(=O)c1ccc(NCc2nc3ccccc3[nH]2)cc1", "4% (inactive)"],
  ["CC(C)C(NC(=O)OCc1ccccc1)C(=O)OCC(=O)NCc1ccco1 (stereo unspecified)", "7% (inactive)"],
  ["COc1ccc(N2CCN(C(c3cccs3)c3nnnn3C3CCCC3)CC2)cc1 (stereo unspecified)", "6% (inactive)"],
  ["CCCCn1nnnc1NCc1cccs1", "0% (inactive)"],
  ["O=C(Nc1ccc(N2CCOCC2)cc1)C1CC1", "0% (inactive)"],
  ["O=C(O)COc1ccc2occ(C(=O)c3ccccc3)c2c1", "0% (inactive)"]
]}

* * *

molecular target: Pantothenate synthetase (Mycobacterium tuberculosis (strain ATCC 25618 / H37Rv)) (UniProt P9WIL5); experiment: Coupled enzyme confirmation of inhibitors against recombinant Mtb PanC (AID 375); settings: coupled enzyme assay; at 10 µM, stronger effect = higher value;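 also: 0% = full reaction with vehicle and 100% = no enzyme background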
Some molecules, each annotated with its measured inhibition.

{"columns": ["molecule", "inhibition, %"],
 "data": [
  ["CCCC(=O)Nc1ccc(C(=O)O)cc1NC(=O)CCC", 0],
  ["COCCNC(=O)C(c1ccc(C)o1)N(Cc1ccc(F)cc1)C(=O)Cn1nnc2ccccc21 (stereo not drawn)", 8],
  ["N#CC1=C(N)OC(c2ccccc2)=C(C#N)C1c1ccc2c(c1)OCO2 (stereo not drawn)", 0],
  ["O=C(CCCn1ncn2c(cc3occc32)c1=O)N1CCc2ccccc2C1", 6],
  ["CCc1nc(N)c(C#N)c(-c2ccncc2)c1C", 0],
  ["CCC1(c2ccc(F)cc2)NC(=O)N(CC(=O)c2ccc[nH]2)C1=O (stereo not drawn)", 0],
  ["COc1ccc(OCCN2C(=O)NC(C)(c3ccc(C)cc3)C2=O)cc1 (stereo not drawn)", 1],
  ["Cc1c(NC(=O)C2(c3ccccc3)CCOCC2)c(=O)n(-c2ccccc2)n1C", 3],
  ["CC(=O)c1nnn(-c2nc(N3CCCC3)nc(N(c3ccccc3)c3ccccc3)n2)c1C", 0],
  ["CCOc1ncccc1C(=O)Nc1ccc(Cl)cc1", 2],
  ["COc1cc(C(=O)OCC(=O)N(C)Cc2ccccc2)cc(OC)c1OC", 0],
  ["CCOc1ccccc1N(C(=O)Cn1nnnc1-c1ccc(C)o1)C(CC)C(=O)NC(C)(C)C (stereo not drawn)", 0],
  ["CC(C)Cn1cc(C(=O)NCC2CCCO2)c2c3ccccc3n(C)c2c1=O (stereo not drawn)", 4],
  ["Cc1csc(NC(=O)CSc2nsc(SCC(=O)Nc3nc(C)cs3)c2C#N)n1", 2],
  ["CC(=O)N[C@@H](CS)C(=O)O", 0],
  ["CCCn1c(SCC(=O)N2CCCc3ccccc32)nnc1-c1ccccn1", 3],
  ["Cc1nn(Cc2ccccc2)c(C)c1NC(=O)CCC(=O)O", 2],
  ["Cc1ccc(CCNC(=O)Cn2cccc2)cc1", 0],
  ["CC1=C(C(=O)N2CCC3(CC2)OCCO3)C2(CCC(C)CC2)OC1=O (stereo not drawn)", 0],
  ["CSCCC(NC(=O)c1ccco1)C(=O)OC(C)C(=O)NC(=O)NC1CCCCC1 (stereo not drawn)", 0],
  ["CC(C)(C)NC(=O)COC(=O)c1ccc(O)cc1", 0],
  ["NCC(O)COc1ccc2c(c1)OCO2 (stereo not drawn)", 0],
  ["Cc1noc(C)c1S(=O)(=O)N1CCC(C(=O)N2CCN(Cc3ccc4c(c3)OCO4)CC2)CC1", 0]
]}
